Quick list: pEC50 per entry.
- target or test system: 5-HT2A receptor (Homo sapiens (Human))
- assay method text: 5-HT2A functional assay, IP1 (IPOne)
- Assay type: cell-based
- condition description: IP1 assay; read-out: 5-HT2A EC50
The read-out pEC50 is expressed as -log10 of concentration in moles per litre.

COc1cc(C(C)(C)C)c(OC)cc1CCN = 8.38

stdin: Fill in the blank: the reported pEC50 of `COc1cc(SCC(F)(F)C(F)F)c(OC)cc1CCN` is ____.
stdout: 7.05

* * *

Each item that follows carries a reported half-life at 1 μM.
- assay method text: In vitro liver microsome stability (HLM)
- Type: in vitro ADME
- condition description: human, human liver microsomes, 0.5 mg/mL microsomes, NADPH, read-out: HLM, t1/2

COc1cc(SC(F)(F)F)c(OC)cc1CCN [Compound I-1] = > 2 h

stdin: What half-life at 1 μM value was documented for this compound, [2H]C([2H])([2H])Oc1cc(SC(F)(F)F)c(OC([2H])([2H])[2H])cc1CCN [II-10] ?
stdout: > 2 h
